Tested on: Salmonella typhimurium
Test: Antibacterial activity against Salmonella typhimurium 2421 after 24 hrs by two-fold serial dilution method
Format: functional, Salmonella enterica subsp. enterica serovar Typhimurium
Settings: Salmonella enterica, 2421, 24 h
# maps each entry to its MIC

Problem: # get_value(readout='MIC', item= O=C(O)[C@H](Cc1ccccc1)N1C(=O)/C(=C/c2ccc(/C=N/n3c(-c4ccccc4Br)n[nH]c3=S)cc2)SC1=S )
Result: > 128 µg/mL

Problem: # get_value(readout='MIC', item= O=C(O)CN1C(=O)/C(=C/c2ccc(/C=N/n3c(-c4ccccc4)n[nH]c3=S)cc2)SC1=S )
Result: > 128 µg/mL

Problem: # get_value(readout='MIC', item= O=C(O)[C@H](Cc1ccccc1)N1C(=O)/C(=C/c2ccc(/C=N/n3c(-c4ccccc4Cl)n[nH]c3=S)cc2)SC1=S )
Result: > 128 µg/mL

Problem: # get_value(readout='MIC', item= O=C1NC(=S)S/C1=C\c1ccc(/C=N/n2c(-c3cccc(Cl)c3)n[nH]c2=S)cc1 )
Result: > 128 µg/mL

Problem: # get_value(readout='MIC', item= O=C(O)[C@H](Cc1ccccc1)N1C(=O)/C(=C/c2ccc(/C=N/n3c(-c4cccc(Cl)c4)n[nH]c3=S)cc2)SC1=S )
Result: > 128 µg/mL

Problem: # get_value(readout='MIC', item= Cc1ccc(-c2n[nH]c(=S)n2/N=C/c2ccc(/C=C3\SC(=S)N(CC(=O)O)C3=O)cc2)cc1 )
Result: > 128 µg/mL

Problem: # get_value(readout='MIC', item= Cc1ccccc1-c1n[nH]c(=S)n1/N=C/c1ccc(/C=C2\SC(=S)N([C@@H](Cc3ccccc3)C(=O)O)C2=O)cc1 )
Result: > 128 µg/mL

Problem: # get_value(readout='MIC', item= O=C(O)CN1C(=O)/C(=C/c2ccc(/C=N/n3c(-c4ccccc4Cl)n[nH]c3=S)cc2)SC1=S )
Result: > 128 µg/mL

Problem: # get_value(readout='MIC', item= O=C(O)CN1C(=O)/C(=C/c2ccc(/C=N/n3c(-c4ccc(F)cc4)n[nH]c3=S)cc2)SC1=S )
Result: > 128 µg/mL

Problem: # get_value(readout='MIC', item= O=C(O)[C@H](Cc1ccccc1)N1C(=O)/C(=C/c2ccc(/C=N/n3c(-c4ccccc4)n[nH]c3=S)cc2)SC1=S )
Result: > 128 µg/mL

====

Tested on: Staphylococcus aureus
Test: Bactericidal activity against methicillin-resistant Staphylococcus aureus CCARM 3506 after 24 hrs by agar plate method
Type: functional
Settings: CCARM 3506, 24 h
QUANTITY_NAME: MBC (µg/mL)
Give a bare numeral; the unit µg/mL is implied.

Solved cases (3 shown):
Problem: # get_value(readout='MBC', item= O=C(O)[C@H](Cc1ccccc1)N1C(=O)/C(=C/c2ccc(/C=N/n3c(-c4cccc(Br)c4)n[nH]c3=S)cc2)SC1=S )
Result: 64

Problem: # get_value(readout='MBC', item= O=C(O)[C@H](Cc1ccccc1)N1C(=O)/C(=C/c2ccc(/C=N/n3c(-c4ccccc4)n[nH]c3=S)cc2)SC1=S )
Result: 32

Problem: # get_value(readout='MBC', item= O=C(O)[C@H](Cc1ccccc1)N1C(=O)/C(=C/c2ccc(/C=N/n3c(-c4ccc(Cl)cc4)n[nH]c3=S)cc2)SC1=S )
Result: 128

Could you now consider this next compound?
Problem: # get_value(readout='MBC', item= Cc1cccc(-c2n[nH]c(=S)n2/N=C/c2ccc(/C=C3\SC(=S)N([C@@H](Cc4ccccc4)C(=O)O)C3=O)cc2)c1 )
Result: 64

====

Test system: Staphylococcus aureus
Assay: Bactericidal activity against quinolone-resistant Staphylococcus aureus CCARM 3505 after 24 hrs by agar plate method
Assay type: functional
Details: CCARM 3505, 24 h
QUANTITY_NAME: MBC

Problem: # get_value(readout='MBC', item= O=C(O)[C@H](Cc1ccccc1)N1C(=O)/C(=C/c2ccc(/C=N/n3c(-c4ccccc4Br)n[nH]c3=S)cc2)SC1=S )
Result: 32 µg/mL

More entries:
Problem: # get_value(readout='MBC', item= COc1c(N2C[C@@H]3CCCN[C@@H]3C2)c(F)cc2c(=O)c(C(=O)O)cn(C3CC3)c12 )
Result: 4 µg/mL

Problem: # get_value(readout='MBC', item= O=C1NC(=S)S/C1=C\c1ccc(/C=N/n2c(-c3ccccc3Cl)n[nH]c2=S)cc1 )
Result: > 128 µg/mL

Problem: # get_value(readout='MBC', item= O=C(O)[C@H](Cc1ccccc1)N1C(=O)/C(=C/c2ccc(/C=N/n3c(-c4ccccc4Cl)n[nH]c3=S)cc2)SC1=S )
Result: > 128 µg/mL

====

Test system: Salmonella typhimurium
Test: Antibacterial activity against Salmonella typhimurium 2421 after 24 hrs by two-fold serial dilution method
Format: functional, Salmonella enterica subsp. enterica serovar Typhimurium
Conditions: Salmonella enterica, 2421, 24 h
QUANTITY_NAME: MIC

Problem: # get_value(readout='MIC', item= Cc1cccc(-c2n[nH]c(=S)n2/N=C/c2ccc(/C=C3\SC(=S)N([C@@H](Cc4ccccc4)C(=O)O)C3=O)cc2)c1 )
Result: > 128 µg/mL

More entries:
Problem: # get_value(readout='MIC', item= O=C(O)[C@H](Cc1ccccc1)N1C(=O)/C(=C/c2ccc(/C=N/n3c(-c4cccc(Br)c4)n[nH]c3=S)cc2)SC1=S )
Result: > 128 µg/mL

Problem: # get_value(readout='MIC', item= O=C(O)[C@H](Cc1ccccc1)N1C(=O)/C(=C/c2ccc(/C=N/n3c(-c4ccc(F)cc4)n[nH]c3=S)cc2)SC1=S )
Result: > 128 µg/mL

Problem: # get_value(readout='MIC', item= O=C(O)CN1C(=O)/C(=C/c2ccc(/C=N/n3c(-c4cccc(Cl)c4)n[nH]c3=S)cc2)SC1=S )
Result: > 128 µg/mL

====

# maps each entry to its MBC
Tested on: Staphylococcus aureus
Assay: Bactericidal activity against methicillin-resistant Staphylococcus aureus CCARM 3167 after 24 hrs by agar plate method
Assay type: functional
Conditions: CCARM 3167, 24 h
Give a bare numeral; the unit µg/mL is implied.

Problem: Recall the recorded MBC for O=C(O)[C@H](Cc1ccccc1)N1C(=O)/C(=C/c2ccc(/C=N/n3c(-c4ccc(Cl)cc4)n[nH]c3=S)cc2)SC1=S with Staphylococcus aureus and state it.
Result: 64

More entries:
Problem: Recall the recorded MBC for O=C(O)[C@H](Cc1ccccc1)N1C(=O)/C(=C/c2ccc(/C=N/n3c(-c4ccccc4Cl)n[nH]c3=S)cc2)SC1=S with Staphylococcus aureus and state it.
Result: 32

====

Tested on: Streptococcus mutans
Assay: Antibacterial activity against Streptococcus mutans 3065 after 24 hrs by two-fold serial dilution method
Format: functional
Conditions: Streptococcus mutans, 3065, 24 h
Doc: threshold 20 µg/mL (exclusive). Items with MIC beneath it return rule met; others return rule not met.

Problem: Consider the molecule Cc1cccc(-c2n[nH]c(=S)n2/N=C/c2ccc(/C=C3\SC(=S)N([C@@H](Cc4ccccc4)C(=O)O)C3=O)cc2)c1 . Is its MIC strictly less than 20 µg/mL?
Result: rule not met

Problem: Consider the molecule O=C(O)[C@H](Cc1ccccc1)N1C(=O)/C(=C/c2ccc(/C=N/n3c(-c4ccccc4Cl)n[nH]c3=S)cc2)SC1=S . Is its MIC strictly less than 20 µg/mL?
Result: rule met

Problem: Consider the molecule O=C(O)[C@H](Cc1ccccc1)N1C(=O)/C(=C/c2ccc(/C=N/n3c(-c4cccc(Cl)c4)n[nH]c3=S)cc2)SC1=S . Is its MIC strictly less than 20 µg/mL?
Result: rule met

Problem: Consider the molecule Cc1cccc(-c2n[nH]c(=S)n2/N=C/c2ccc(/C=C3\SC(=S)NC3=O)cc2)c1 . Is its MIC strictly less than 20 µg/mL?
Result: rule not met

Problem: Consider the molecule Cc1ccc(-c2n[nH]c(=S)n2/N=C/c2ccc(/C=C3\SC(=S)NC3=O)cc2)cc1 . Is its MIC strictly less than 20 µg/mL?
Result: rule not met

Problem: Consider the molecule O=C1NC(=S)S/C1=C\c1ccc(/C=N/n2c(-c3ccc(Br)cc3)n[nH]c2=S)cc1 . Is its MIC strictly less than 20 µg/mL?
Result: rule not met

Problem: Consider the molecule O=C1NC(=S)S/C1=C\c1ccc(/C=N/n2c(-c3ccccc3Cl)n[nH]c2=S)cc1 . Is its MIC strictly less than 20 µg/mL?
Result: rule met

Problem: Consider the molecule O=C(O)CN1C(=O)/C(=C/c2ccc(/C=N/n3c(-c4ccc(Cl)cc4)n[nH]c3=S)cc2)SC1=S . Is its MIC strictly less than 20 µg/mL?
Result: rule not met

Problem: Consider the molecule COc1c(N2CCNC(C)C2)c(F)cc2c(=O)c(C(=O)O)cn(C3CC3)c12 (stereo unspecified) . Is its MIC strictly less than 20 µg/mL?
Result: rule met

Problem: Consider the molecule Cc1ccc(-c2n[nH]c(=S)n2/N=C/c2ccc(/C=C3\SC(=S)N([C@@H](Cc4ccccc4)C(=O)O)C3=O)cc2)cc1 . Is its MIC strictly less than 20 µg/mL?
Result: rule not met

More entries:
Problem: Consider the molecule Cc1ccccc1-c1n[nH]c(=S)n1/N=C/c1ccc(/C=C2\SC(=S)N([C@@H](Cc3ccccc3)C(=O)O)C2=O)cc1 . Is its MIC strictly less than 20 µg/mL?
Result: rule met

Problem: Consider the molecule O=C1NC(=S)S/C1=C\c1ccc(/C=N/n2c(-c3ccc(F)cc3)n[nH]c2=S)cc1 . Is its MIC strictly less than 20 µg/mL?
Result: rule not met

Problem: Consider the molecule O=C(O)CN1C(=O)/C(=C/c2ccc(/C=N/n3c(-c4ccccc4Br)n[nH]c3=S)cc2)SC1=S . Is its MIC strictly less than 20 µg/mL?
Result: rule not met

Problem: Consider the molecule O=C1NC(=S)S/C1=C\c1ccc(/C=N/n2c(-c3ccc(Cl)cc3)n[nH]c2=S)cc1 . Is its MIC strictly less than 20 µg/mL?
Result: rule not met

Problem: Consider the molecule O=C(O)CN1C(=O)/C(=C/c2ccc(/C=N/n3c(-c4ccccc4Cl)n[nH]c3=S)cc2)SC1=S . Is its MIC strictly less than 20 µg/mL?
Result: rule not met

Problem: Consider the molecule O=C(O)[C@H](Cc1ccccc1)N1C(=O)/C(=C/c2ccc(/C=N/n3c(-c4ccc(F)cc4)n[nH]c3=S)cc2)SC1=S . Is its MIC strictly less than 20 µg/mL?
Result: rule not met
